chromatographic logP values by entry
Assay: log p (partition coefficient octanol/water, determined experimentally from reversed phase HPLC)
Assay type: physicochemical
Conditions: reversed phase hplc, A isomer

compound: CCON=C(COc1ccc(-c2ccc(C3COC(c4c(F)cccc4F)=N3)cc2)cc1)c1ccc(OC(F)(F)C(F)F)cc1 (centres unmarked)
chromatographic logP: 5.59

compound: CC(COc1ccc(-c2ccc(C3COC(c4c(F)cccc4Cl)=N3)cc2)cc1)=NOC(C)C (centres unmarked)
chromatographic logP: 5.78

compound: CON=C(COc1ccc(-c2ccc(C3COC(c4c(F)cccc4F)=N3)cc2)cc1)c1cc(Cl)ccc1Cl (centres unmarked)
chromatographic logP: 5.62

compound: CCON=C(C)COc1ccc(-c2ccc(C3COC(c4c(F)cccc4F)=N3)cc2)cc1Cl (centres unmarked)
chromatographic logP: 5.39

compound: CCON=C(C)C(C)Oc1ccc(-c2ccc(C3COC(c4c(F)cccc4F)=N3)cc2)cc1 (centres unmarked)
chromatographic logP: 5.02

compound: CON=C(COc1ccc(-c2ccc(C3COC(c4c(F)cccc4F)=N3)cc2)cc1)c1ccc(CC(C)C)cc1 (centres unmarked)
chromatographic logP: 6.34

compound: CON=C(COc1ccc(-c2ccc(C3COC(c4c(F)cccc4F)=N3)cc2)cc1)c1ccc(Cl)cc1 (centres unmarked)
chromatographic logP: 5.27

compound: C=CCON=C(C)COc1ccc(-c2ccc(C3COC(c4ccccc4Cl)=N3)cc2)cc1 (centres unmarked)
chromatographic logP: 5.12

compound: CON=C(COc1ccc(-c2ccc(C3COC(c4c(F)cccc4F)=N3)cc2)cc1)c1ccc(C(F)F)cc1 (centres unmarked)
chromatographic logP: 4.78

compound: CC(COc1ccc(-c2ccc(C3COC(c4c(F)cccc4F)=N3)cc2)cc1)=NOC(C)C (centres unmarked)
chromatographic logP: 5.1

compound: CCON=C(COc1ccc(-c2ccc(C3COC(c4c(F)cccc4F)=N3)cc2)cc1)C1CC1 (centres unmarked)
chromatographic logP: 5.28

compound: C=CCON=C(C)C(C)Oc1ccc(-c2ccc(C3COC(c4ccccc4Cl)=N3)cc2)cc1 (centres unmarked)
chromatographic logP: 5.45

compound: CCON=C(COc1ccc(-c2ccc(C3COC(c4c(F)cccc4F)=N3)cc2)cc1)c1ccc(C)cc1 (centres unmarked)
chromatographic logP: 5.42

compound: CCON=C(COc1ccc(-c2ccc(C3COC(c4c(F)cccc4F)=N3)cc2)cc1)c1ccc(OC)cc1 (centres unmarked)
chromatographic logP: 5.04

compound: CCON=C(C)COc1ccc(-c2ccc(C3COC(c4c(F)cccc4F)=N3)cc2)cc1 (centres unmarked)
chromatographic logP: 5.49

compound: CC(=NOC(C)C)C(C)Oc1ccc(-c2ccc(C3COC(c4ccccc4Cl)=N3)cc2)cc1Cl (centres unmarked)
chromatographic logP: 6.3

compound: CCON=C(COc1ccc(-c2ccc(C3COC(c4c(F)cccc4F)=N3)cc2)cc1)c1ccc(CC(C)C)cc1 (centres unmarked)
chromatographic logP: 6.7

Cited source: patent US6211214A
